- Tested on: S1P
- Protocol Description: S1P levels in dorsal horn tissue by ELISA
- Type: in vivo, rat
- Study Conditions: rat, in vivo

Compound: CCCCCCC(=O)CCCCCC/C=C/C[C@@H](O)[C@H](O)[C@@](N)(CO)C(=O)O
Assayed System: S1P
S1P (pg/mg tissue): 1.2 ± 0.05 pg/mg tissue
--
Compound: CCCC[C@@H](C)[C@@H](OC(=O)C[C@@H](CC(=O)O)C(=O)O)[C@H](C[C@@H](C)C[C@H](O)CCCC[C@@H](O)C[C@H](O)[C@H](C)N)OC(=O)C[C@@H](CC(=O)O)C(=O)O
Assayed System: S1P
S1P (pg/mg tissue): 1.4 ± 0.06 pg/mg tissue
--
Compound: Oc1ccc(Nc2nc(-c3ccc(Cl)cc3)cs2)cc1
Assayed System: S1P
S1P (pg/mg tissue): 1.3 ± 0.06 pg/mg tissue
--
Compound: S=C([S-])OC1CC2CC1C1CCCC21.[K+] (stereo not shown) [D609, Tricyclodecan-9-ylxanthogenate, K]
Assayed System: S1P
S1P (pg/mg tissue): 1.5 ± 0.06 pg/mg tissue

----------
- Test system: Male Sprague Dawley rats
- Protocol Description: Antinociceptive tolerance (tail flick after acute morphine) in rats with chronic s.c. morphine or saline infusion
- Assay type: in vivo, rat
- Study Conditions: drug given alone i.th daily over 6 days to saline-infused rats; response to acute morphine; day 6; mean ± SEM
Consider the following compounds and their measured % MPE (Tail-flick) readings.

Compound: Oc1ccc(Nc2nc(-c3ccc(Cl)cc3)cs2)cc1
% MPE (Tail-flick), %: 99

Compound: CCCC[C@@H](C)[C@@H](OC(=O)C[C@@H](CC(=O)O)C(=O)O)[C@H](C[C@@H](C)C[C@H](O)CCCC[C@@H](O)C[C@H](O)[C@H](C)N)OC(=O)C[C@@H](CC(=O)O)C(=O)O
% MPE (Tail-flick), %: 92

Compound: CCCCCCC(=O)CCCCCC/C=C/C[C@@H](O)[C@H](O)[C@@](N)(CO)C(=O)O
% MPE (Tail-flick), %: 91

Compound: S=C([S-])OC1CC2CC1C1CCCC21.[K+] (stereo not shown) [D609, Tricyclodecan-9-ylxanthogenate, K]
% MPE (Tail-flick), %: 92

The reported numbers originate from patent US8945549B2.
